# System under test: AgLsb4
# Test: SPOT peptide array binding signal intensity (averaged, normalized) (arbitrary units (background-subtracted, floor 0; scale differs between SH3 domains)); higher = stronger binding of the SH3 domain to the peptide
// Not met strictly below 200 in SPOT peptide array binding signal intensity; Met otherwise

Examples with answers:
INSERT INTO results (binder, class_assignment) VALUES
  ('YLTRPLPSTPNEDSR', 'Met'),
  ('PSRRDSLSIPRAVDA', 'Not met'),
  ('KDKSRPPRPPPKPLH', 'Not met'),
  ('KTITLEVESSDTIDN', 'Not met'),
  ('KRRAPPPVPKKPSSR', 'Met'),
  ('QHQQRQPKRPKRYSL', 'Not met'),
  ('SSSSSPPPLPTRRDH', 'Met'),
  ('NFLRLLIGLPSQNEL', 'Met');

Evaluate NQARKPFLLPATELS : SPOT peptide array binding signal intensity at minimum 200?
Not met

And the next one, KNRKNLPTIPIRLSG ?
Not met

// same read-out, input: TKHKAPPPPPPTAET
Not met

Proceed to GTIARPLFLVVLFFI
Met

And IKTRSVPKIPSIESV ?
Met

From: the supplement of paper PMC4466140
